The measurements presented in this section are drawn from patent US11648316B2.

- test_name: in vivo
- assay_setup: rat
reported_metric: bioavailability (%)
Report only the number, with the unit % understood.

Q) Name the recorded bioavailability for Nc1nc2[nH]cc(CCc3ccc(C(=O)N[C@@H](CCC(=O)O)C(=O)O)cc3)c2c(=O)[nH]1 .
A) 1.49

====

- test_name: in vivo
- assay_setup: rat, iv, 5 mg/kg
reported_metric: bioavailability (%)
Give your result in % as a bare value.

Q) bioavailability for Nc1nc2[nH]cc(CCc3ccc(C(=O)N[C@@H](CCC(=O)O)C(=O)O)cc3)c2c(=O)[nH]1 [PMX, Pemetrexed] ?
A) 100

====

- test_name: in vivo
- assay_setup: rat, po, 50 mg/kg
reported_metric: Tmax (min)
// note: answer is a bare numeric in min

Q) Please give the measured Tmax for this compound: Nc1nc2[nH]cc(CCc3ccc(C(=O)N[C@@H](CCC(=O)O)C(=O)O)cc3)c2c(=O)[nH]1
A) 49.8

====

- test_name: In-vivo bioavailability of oral nanoemulsion in rats, Example 11
- assay_setup: rat, po, 20 mg/kg
reported_metric: half-life
# output: number + unit

Q) Look up half-life for this compound: Nc1nc2[nH]cc(CCc3ccc(C(=O)N[C@@H](CCC(=O)O)C(=O)O)cc3)c2c(=O)[nH]1 [PMX, Pemetrexed]
A) 7.55 h

====

- test_name: in vivo
- assay_setup: rat, po, 50 mg/kg
reported_metric: AUC(0-t) (µg·h/mL)
Answer with a number only, understood to be in µg·h/mL.

Q) Consider the molecule Nc1nc2[nH]cc(CCc3ccc(C(=O)N[C@@H](CCC(=O)O)C(=O)O)cc3)c2c(=O)[nH]1 [PMX, Pemetrexed] and give its measured AUC(0-t).
A) 1.39

====

- test_name: in vivo
- assay_setup: rat, po, 50 mg/kg
reported_metric: AUC(0-inf) (µg·h/mL)
Report only the number, with the unit µg·h/mL understood.

Q) # lookup: AUC(0-inf) of Nc1nc2[nH]cc(CCc3ccc(C(=O)N[C@@H](CCC(=O)O)C(=O)O)cc3)c2c(=O)[nH]1 [PMX, Pemetrexed]
A) 2.56

====

- test_name: in vivo
- assay_setup: rat, po, 50 mg/kg
reported_metric: half-life (min)
A number alone suffices; assume min.

Q) I'd like to know its half-life. The molecule in question is Nc1nc2[nH]cc(CCc3ccc(C(=O)N[C@@H](CCC(=O)O)C(=O)O)cc3)c2c(=O)[nH]1
A) 364
